Data provenance is patent US4230719A.

Tested on: phenylbenzoquinone writhing
Test: Analgesic activity, phenylbenzoquinone method in mouse
Assay type: in vivo, mouse (ddY strain, male)
Settings: Mus musculus, po, 10 min; writhing, 40 mg/kg p.o.
Outcome: MET for inhibition in vivo at 40 mg/kg of at least 20%; NOT MET for anything lower.

compound: Cc1csc(-c2ccc(C(C)C(=O)O)cc2)c1 (stereo not drawn) [Compound C5]
target or system: phenylbenzoquinone writhing
assigned label: NOT MET

compound: CC(C(=O)O)c1ccc(-c2cccs2)c(Cl)c1 (stereo not drawn) [Compound C3]
target or system: phenylbenzoquinone writhing
assigned label: MET

compound: CCCc1ccsc1-c1ccc(C(C)C(=O)O)cc1 (stereo not drawn) [Compound C4]
target or system: phenylbenzoquinone writhing
assigned label: NOT MET

compound: O=C(O)Cc1ccc(-c2cccs2)cc1 [Compound C9]
target or system: phenylbenzoquinone writhing
assigned label: MET

stdin: Quick check, inhibition in vivo at 40 mg/kg >= 20%? CC(C(=O)O)c1ccc(-c2ccc(Cl)s2)cc1 (stereo not drawn) [Compound C8]
stdout: MET

stdin: Quick check, inhibition in vivo at 40 mg/kg >= 20%? Cc1ccc(-c2ccc(C(C)C(=O)O)cc2)s1 (stereo not drawn) [Compound C6]
stdout: MET

stdin: Quick check, inhibition in vivo at 40 mg/kg >= 20%? CC(C(=O)O)c1ccc(-c2cccs2)cc1 (stereo not drawn) [Compound C2]
stdout: MET

stdin: Quick check, inhibition in vivo at 40 mg/kg >= 20%? Cc1cc(-c2ccc(C(C)C(=O)O)cc2)sc1C (stereo not drawn) [Compound C7]
stdout: NOT MET

stdin: Quick check, inhibition in vivo at 40 mg/kg >= 20%? CCc1ccsc1-c1ccc(C(C)C(=O)O)cc1 (stereo not drawn) [Compound C1]
stdout: NOT MET

----------
Give measured inhibition in vivo at 20 mg/kg for each item. Keep answers brief.
System: phenylbenzoquinone writhing
Test: Analgesic activity, phenylbenzoquinone method in mouse
Format: in vivo, mouse (ddY strain, male)
Conditions: Mus musculus, po, 10 min; writhing, 20 mg/kg p.o.; read-out: Inhibition
One number for each entry, in %.

compound: Cc1ccsc1-c1ccc(C(C)C(=O)O)cc1 (racemic) [Racemic compound]
unit abbrev: %
inhibition in vivo at 20 mg/kg: 86
//
compound: Cc1ccsc1-c1ccc(C(C)C(=O)O)cc1 (single isomer, unassigned; isomer d) [d-Isomer]
unit abbrev: %
inhibition in vivo at 20 mg/kg: 77.1
//
compound: CCc1ccsc1-c1ccc(C(C)C(=O)O)cc1 (stereo not drawn)
unit abbrev: %
inhibition in vivo at 20 mg/kg: -0.4

For each entry beneath this line, provide reported inhibition in vivo at 20 mg/kg.
1. CC(C(=O)O)c1ccc(-c2cccs2)cc1 (stereo not drawn)
2. CC(C(=O)O)c1ccc(-c2cccs2)c(Cl)c1 (stereo not drawn)
3. CC(C(=O)O)c1ccc(-c2ccc(Cl)s2)cc1 (stereo not drawn)

stdout:
38.1
17.8
25.8

----------
Test system: Vascular permeability
Assay: Vascular permeability in mice (Whittle's method)
Assay type: in vivo, mouse (ddY strain, male)
Conditions: 20 mg/kg p.o.
Give measured Dye leakage (P.S.B.) mean ± S.E. for each item. Keep answers brief.
One number for each entry, in μg/20g.

molecule: COc1ccc2c(c1)c(CC(=O)O)c(C)n2C(=O)c1ccc(Cl)cc1
target or system: Vascular permeability
value: 176.4
//
molecule: Cc1ccsc1-c1ccc(C(C)C(=O)O)cc1 (single isomer, unassigned; isomer d) [d-Isomer]
target or system: Vascular permeability
value: 160.4
//
molecule: O=C(O)Cc1ccccc1Nc1c(Cl)cccc1Cl [Diclofenac sodium]
target or system: Vascular permeability
value: 205.3
//
molecule: CCc1ccsc1-c1ccc(C(C)C(=O)O)cc1 (stereo not drawn)
target or system: Vascular permeability
value: 245.9
//
molecule: CC(C(=O)O)c1ccc(-c2cccs2)c(Cl)c1 (stereo not drawn)
target or system: Vascular permeability
value: 226.9

Okay, next one:
stdin: Output Dye leakage (P.S.B.) mean ± S.E. of Cc1ccsc1-c1ccc(C(C)C(=O)O)cc1 (racemic) [Racemic compound]
stdout: 166.8

----------
Tested on: phenylbenzoquinone writhing
Experiment: Analgesic activity, phenylbenzoquinone method in mouse
Format: in vivo, mouse (ddY strain, male)
Conditions: 5 mg/kg p.o., during 10 minutes
readout name: Frequency of writhing, mean ± S.E.

The following molecules have reported results that may help.
molecule: O=C(O)Cc1ccccc1Nc1c(Cl)cccc1Cl [Diclofenac sodium]
value: 21.4 ± 3.0

molecule: COc1ccc2c(c1)c(CC(=O)O)c(C)n2C(=O)c1ccc(Cl)cc1
value: 13.8 ± 2.9

molecule: Cc1ccsc1-c1ccc(C(C)C(=O)O)cc1 (single isomer, unassigned; isomer d) [d-Isomer]
value: 14.5 ± 3.5

stdin: System phenylbenzoquinone writhing. Read-out Frequency of writhing, mean ± S.E.. Item Cc1ccsc1-c1ccc(C(C)C(=O)O)cc1 (racemic) [Racemic compound] . Report value.
stdout: 18.6 ± 4.5

----------
System: Carrageenin-induced edema
Assay: Carrageenin-induced edema
Format: in vivo, rat (Donryu strain, male)
Conditions: Rattus norvegicus, po; 1 mg/kg p.o., mean in 5 hours; read-out: Inhibitory percent of swelling
Give measured inhibition in vivo at 1 mg/kg for each item. Keep answers brief.
Answers are plain numbers, in %.

The following compounds have reported results that may help.
compound: Cc1ccsc1-c1ccc(C(C)C(=O)O)cc1 (single isomer, unassigned; isomer d) [d-Isomer]
target or system: Carrageenin-induced edema
readout name: inhibition in vivo at 1 mg/kg
value: 40

compound: CC(C(=O)O)c1ccc(-c2cccs2)c(Cl)c1 (stereo not shown) [Compound C3]
target or system: Carrageenin-induced edema
readout name: inhibition in vivo at 1 mg/kg
value: 15.2

compound: CC(C(=O)O)c1ccc(-c2cccs2)cc1 (stereo not shown) [Compound C2]
target or system: Carrageenin-induced edema
readout name: inhibition in vivo at 1 mg/kg
value: 11.8

stdin: Output inhibition in vivo at 1 mg/kg of Cc1ccsc1-c1ccc(C(C)C(=O)O)cc1 (racemic) [Racemic compound]
stdout: 21.2

----------
System: Vascular permeability
Assay: Vascular permeability in mice (Whittle's method)
Format: in vivo, mouse (ddY strain, male)
Conditions: 5 mg/kg p.o.
Give measured Dye leakage (P.S.B.) mean ± S.E. for each item. Keep answers brief.
One number for each entry, in μg/20g.

For each entry beneath this line, provide reported Dye leakage (P.S.B.) mean ± S.E..
1. Cc1ccsc1-c1ccc(C(C)C(=O)O)cc1 (single isomer, unassigned; isomer d) [d-Isomer]
2. COc1ccc2c(c1)c(CC(=O)O)c(C)n2C(=O)c1ccc(Cl)cc1 [Indomethacin]
3. CC(C(=O)O)c1ccc(-c2cccs2)c(Cl)c1 (centres unmarked) [Compound C3]
4. Cc1ccsc1-c1ccc(C(C)C(=O)O)cc1 (racemic) [Racemic compound]
5. CC(C(=O)O)c1ccc(-c2cccs2)cc1 (centres unmarked) [Compound C2]

stdout:
256.4
240.5
289.3
262.0
314.7

----------
Test system: fever (Mycobacterium butyricum)
Assay: Antipyretic action
Type: in vivo, rat (Wistar strain, female)
Conditions: 1 mg/kg p.o.
Protocol: A suspension (0.6 mg/0.1 ml) of killed and dried Mycobacterium butyricum in liquid paraffin was subcutaneously injected in an amount of 0.1 ml into the subplantar region of the hind paw of each Wistar strain female rat weighing about 180 g. After 14 hours, the fevered rats were divided into groups, and each test compound was orally administered to each group to examine the antipyretic effect.
readout name: Mean decrease in temp. (°C)
Give bare numbers, in °C.

molecule: O=C(O)Cc1ccccc1Nc1c(Cl)cccc1Cl [Diclofenac sodium]
unit abbrev: °C
value: 1.63

For each entry beneath this line, provide reported Mean decrease in temp..
1. Cc1ccsc1-c1ccc(C(C)C(=O)O)cc1 (racemic) [Racemic compound]
2. COc1ccc2c(c1)c(CC(=O)O)c(C)n2C(=O)c1ccc(Cl)cc1
3. Cc1ccsc1-c1ccc(C(C)C(=O)O)cc1 (single isomer, unassigned; isomer d) [d-Isomer]

stdout:
[1.20, 0.87, 1.18]

----------
Tested on: Vascular permeability
Assay: Vascular permeability in mice (Whittle's method)
Assay type: in vivo, mouse (ddY strain, male)
Details: po, mouse; read-out: ED30
Experimental: (i) Vascular permeability in mice (Whittle's method) The test compound was orally administered to each ddY strain male mouse (weighing each about 20 g). After 20 minutes, 0.1 ml/10 g of a 4%(Wt/V) solution of Pontamine Sky Blue in physiological saline was intravenously injected and 10 minutes thereafter 0.1 ml/10 g of a 0.7%(V/V) solution of acetic acid in physiological saline was injected intraperitoneally. […] The washings were made up with water to 30 ml and the absorbance at 620 mμ was measured. […]
readout name: ED30 (mg/kg)
Numbers only, in mg/kg.

For each entry beneath this line, provide reported ED30.
1. CC(C(=O)O)c1ccc(-c2cccs2)c(Cl)c1 (centres unmarked)
2. CCc1ccsc1-c1ccc(C(C)C(=O)O)cc1 (centres unmarked)
3. Cc1ccsc1-c1ccc(C(C)C(=O)O)cc1 (single isomer, unassigned; isomer d) [d-Isomer]
4. CC(C(=O)O)c1ccc(-c2cccs2)cc1 (centres unmarked)
5. Cc1ccsc1-c1ccc(C(C)C(=O)O)cc1 (racemic) [Racemic compound]

stdout:
1. 20.5
2. 16
3. 8.6
4. 19.8
5. 8.5
